system: U251 CNS
# output must be one of active, inactive

Recorded results for 4 compounds are shown here.
COC(=O)[C@@H](C)C[C@H](Cc1ccccc1)NC(=O)c1csc(CC[C@H](C(C)C)N(C)C(=O)[C@@H](NC(=O)[C@H]2CCCCN2C)C(C)C)n1 = active
N[C@H](C(=O)O)[C@H]1ON=C(Cl)[C@@H]1O = inactive
COc1ccc(-c2cc(=O)c3ccc(C)nc3[nH]2)cc1 = inactive
CC[N+](CC)=c1sc2c(s1)C(c1ccc(Cl)cc1)Oc1ccc(Cl)cc1-2 (stereo not given) = active

We next turn to a different compound, shown below.
IN: Any idea what this test logged for `COc1cccc(-c2cc(=O)c3cc(OC)ccc3[nH]2)c1` ?
OUT: active

These entries and their values trace back to PubChem BioAssay (NCI).
